- tgt: 5HT2A receptor (Homo sapiens, UniProt P28223)
- Sequence (P28223 whole entry): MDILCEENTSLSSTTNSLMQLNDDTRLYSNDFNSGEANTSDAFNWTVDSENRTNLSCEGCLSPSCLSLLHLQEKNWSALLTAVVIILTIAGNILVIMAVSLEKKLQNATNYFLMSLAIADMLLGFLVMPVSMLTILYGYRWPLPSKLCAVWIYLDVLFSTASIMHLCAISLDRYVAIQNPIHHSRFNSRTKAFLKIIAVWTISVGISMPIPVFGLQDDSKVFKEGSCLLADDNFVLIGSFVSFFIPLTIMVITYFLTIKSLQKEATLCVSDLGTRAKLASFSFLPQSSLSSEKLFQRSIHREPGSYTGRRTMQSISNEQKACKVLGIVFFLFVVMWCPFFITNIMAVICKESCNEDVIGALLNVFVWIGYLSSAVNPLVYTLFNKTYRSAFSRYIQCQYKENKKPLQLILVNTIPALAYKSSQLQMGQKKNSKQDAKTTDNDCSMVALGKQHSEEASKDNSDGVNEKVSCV
- test_protocol: cell-based
- Set-up: expressed in transfected cells; host or cells: HEK293T cells, transient co-transfection
- protocol_conditions: HEK-293T, read-out: 5HTA Gq Emax (%), BRET2 Gαq dissociation, HEK293T, normalized to 5-HT
property: Emax (%)

[
  {
    "compound": "Fc1cc(Cl)c2[nH]cc(C34CNCC3C4)c2c1 (centres unmarked)",
    "recorded_number": 98.6
  },
  {
    "compound": "Cc1cc(F)cc2c(C34CNCC3C4)c[nH]c12 (centres unmarked)",
    "recorded_number": 96.8
  },
  {
    "compound": "Fc1cccc2c(C3CNC3)c[nH]c12",
    "recorded_number": 81.6
  },
  {
    "compound": "Clc1cccc2c(C3=CCCN(C4CC4)C3)n[nH]c12",
    "recorded_number": 64
  },
  {
    "compound": "Clc1cccc2c(C3CNC3)c[nH]c12",
    "recorded_number": 81.1
  }
]

====

- tgt: 5HT2A receptor (Homo sapiens, UniProt P28223)
- test_protocol: cell-based
- Design: expressed in transfected cells; host or cells: HEK293T cells, transient co-transfection
- protocol_conditions: HEK-293T, BRET1 beta-arrestin2 recruitment, HEK293T cells, normalized to 5-HT; read-out: 5HT2A β-Arr Emax (%)

[
  {
    "compound": "COc1cccc2[nH]nc(C3=CCCNC3)c12 [Example 83]",
    "measurement_unit": "%",
    "Emax": 75.9
  },
  {
    "compound": "CCc1cccc2c(C3=CCCNC3)n[nH]c12 [Example 121]",
    "measurement_unit": "%",
    "Emax": 85.7
  },
  {
    "compound": "COc1cccc2[nH]cc(C3=CCCN(C)C3)c12 [Example 20]",
    "measurement_unit": "%",
    "Emax": 47.7
  },
  {
    "compound": "CN1CCC=C(c2n[nH]c3cc(F)ccc23)C1 [Example 95]",
    "measurement_unit": "%",
    "Emax": 27
  },
  {
    "compound": "CCc1cccc2c(C3=CCCN(Cc4ccccc4)C3)c[nH]c12 [Example 69]",
    "measurement_unit": "%",
    "Emax": 63.5
  },
  {
    "compound": "CN1CCC=C(c2c[nH]c3ncc(F)cc23)C1 [Example 118]",
    "measurement_unit": "%",
    "Emax": 56.7
  },
  {
    "compound": "Cc1cccc2[nH]nc(C3=CCCNC3)c12 [Example 80]",
    "measurement_unit": "%",
    "Emax": 71.8
  },
  {
    "compound": "Cc1cccc2c(C3=CCCNC3)c[nH]c12 [Example 41]",
    "measurement_unit": "%",
    "Emax": 83.2
  },
  {
    "compound": "CN1CCC=C(c2n[nH]c3ccc(Cl)cc23)C1 [Example 101]",
    "measurement_unit": "%",
    "Emax": 80.7
  },
  {
    "compound": "CN1CCC=C(c2c[nH]c3cccc(-c4ccccc4)c23)C1 [Example 21]",
    "measurement_unit": "%",
    "Emax": 15.1
  },
  {
    "compound": "Fc1ccnc2[nH]cc(C3=CCCNC3)c12 [Example 119]",
    "measurement_unit": "%",
    "Emax": 53.8
  },
  {
    "compound": "Fc1cccc2c(C3=CCCNC3)n[nH]c12 [Example 90]",
    "measurement_unit": "%",
    "Emax": 70
  },
  {
    "compound": "CN1CCC=C(c2c[nH]c3ncc(Cl)cc23)C1 [Example 7]",
    "measurement_unit": "%",
    "Emax": 20.7
  },
  {
    "compound": "CN1CCC=C(c2c[nH]c3ncc(-c4ccccc4)cc23)C1 [Example 8]",
    "measurement_unit": "%",
    "Emax": 58.3
  },
  {
    "compound": "Clc1[nH]c2ccccc2c1C1=CCCNC1 [Example 64]",
    "measurement_unit": "%",
    "Emax": 60.2
  },
  {
    "compound": "CN1CCC=C(c2n[nH]c3cccc(C#N)c23)C1 [Example 99]",
    "measurement_unit": "%",
    "Emax": 43.8
  },
  {
    "compound": "Fc1cccc2c(C3=CCCN(Cc4ccccc4)C3)c[nH]c12 [Example 73]",
    "measurement_unit": "%",
    "Emax": 56.5
  },
  {
    "compound": "Clc1ccc2c(C3=CCCNC3)n[nH]c2c1 [Example 77]",
    "measurement_unit": "%",
    "Emax": 76.7
  },
  {
    "compound": "CN1CCC=C(c2c[nH]c3nccc(-c4ccccc4)c23)C1 [Example 16]",
    "measurement_unit": "%",
    "Emax": 49.6
  },
  {
    "compound": "N#Cc1ccc2c(C3=CCCNC3)n[nH]c2c1 [Example 79]",
    "measurement_unit": "%",
    "Emax": 82.1
  },
  {
    "compound": "N#Cc1cccc2[nH]nc(C3=CCCNC3)c12 [Example 82]",
    "measurement_unit": "%",
    "Emax": 87.9
  },
  {
    "compound": "CCc1cccc2c(C3=CCCN(C)C3)n[nH]c12 [Example 122]",
    "measurement_unit": "%",
    "Emax": 42.9
  }
]

====

- tgt: 5HT2A receptor (Homo sapiens)
- test_protocol: cell-based
- Set-up: expressed in transfected cells; host or cells: HEK293T cells, transient co-transfection
- protocol_conditions: BRET2 Gαq dissociation, HEK293T cells; read-out: 5HT2A Gq EC50
pEC50: −log10 of the molar value.
Overview of recorded pEC50 for various molecules
property: pEC50

[
  {
    "molecule": "Cc1ccnc2[nH]cc(C3=CCCN(C)C3)c12 [Example 13]",
    "property": "pEC50",
    "recorded_number": 6.98
  },
  {
    "molecule": "Cc1cccc2[nH]nc(C3=CCCNC3)c12 [Example 80]",
    "property": "pEC50",
    "recorded_number": 7.13
  },
  {
    "molecule": "N#Cc1ccc2[nH]nc(C3=CCCNC3)c2c1 [Example 86]",
    "property": "pEC50",
    "recorded_number": 7.80
  },
  {
    "molecule": "CN1CCC=C(c2n[nH]c3cccc(C#N)c23)C1 [Example 99]",
    "property": "pEC50",
    "recorded_number": 7.02
  },
  {
    "molecule": "N#Cc1cccc2[nH]nc(C3=CCCNC3)c12 [Example 82]",
    "property": "pEC50",
    "recorded_number": 7.92
  },
  {
    "molecule": "Clc1cccc2c(C3=CCCNC3)n[nH]c12 [Example 89]",
    "property": "pEC50",
    "recorded_number": 7.94
  },
  {
    "molecule": "Clc1ccc2[nH]nc(C3=CCCNC3)c2c1 [Example 84]",
    "property": "pEC50",
    "recorded_number": 8.47
  },
  {
    "molecule": "C#CCN1CCC=C(c2n[nH]c3c(Cl)cccc23)C1 [Example 125]",
    "property": "pEC50",
    "recorded_number": 7.12
  },
  {
    "molecule": "CN1CCC=C(c2n[nH]c3ccc(Cl)cc23)C1 [Example 101]",
    "property": "pEC50",
    "recorded_number": 7.79
  },
  {
    "molecule": "COc1cccc2[nH]cc(C3=CCCN(C)C3)c12 [Example 20]",
    "property": "pEC50",
    "recorded_number": 8.52
  },
  {
    "molecule": "Cc1cccc2[nH]cc(C3=CCCN(C)C3)c12 [Example 19]",
    "property": "pEC50",
    "recorded_number": 8.05
  },
  {
    "molecule": "CCc1[nH]c2ccccc2c1C1=CCCNC1 [Example 62]",
    "property": "pEC50",
    "recorded_number": 7.12
  },
  {
    "molecule": "CN1CCC=C(c2c[nH]c3c(F)cccc23)C1 [Example 56]",
    "property": "pEC50",
    "recorded_number": 7.77
  },
  {
    "molecule": "CN1CCC=C(c2c[nH]c3c(Cl)cccc23)C1 [Example 44]",
    "property": "pEC50",
    "recorded_number": 7.72
  },
  {
    "molecule": "CCc1cccc2c(C3=CCCNC3)n[nH]c12 [Example 121]",
    "property": "pEC50",
    "recorded_number": 7.69
  },
  {
    "molecule": "CN1CCC=C(c2n[nH]c3cc(F)ccc23)C1 [Example 95]",
    "property": "pEC50",
    "recorded_number": 7.68
  },
  {
    "molecule": "CN1CCC=C(c2n[nH]c3c(Cl)cccc23)C1 [Example 106]",
    "property": "pEC50",
    "recorded_number": 7.41
  },
  {
    "molecule": "CC(C)c1ccc2[nH]cc(C3=CCCNC3)c2c1 [Example 23]",
    "property": "pEC50",
    "recorded_number": 7.18
  },
  {
    "molecule": "CN1CCC=C(c2c[nH]c3c(Cl)cc(F)cc23)C1 [Example 115]",
    "property": "pEC50",
    "recorded_number": 7.29
  },
  {
    "molecule": "Cc1cccc2[nH]cc(C3=CCCNC3)c12 [Example 17]",
    "property": "pEC50",
    "recorded_number": 7.66
  },
  {
    "molecule": "Cc1cccc2c(C3=CCCN(C)C3)n[nH]c12 [Example 105]",
    "property": "pEC50",
    "recorded_number": 7.45
  }
]
